Where do these numbers come from? They come from patent US7932262B2.

// EC50 lookup, one value per entry
System: PC-3 cells
MEASUREMENT DESCRIPTION: Cell Proliferation Assay (Cell Titer Glo), PC-3 cell line
Type: cell-based
MEASUREMENT PARAMETERS: Homo sapiens, PC-3, PC3 cells; read-out: CPEC50 PC3

# input Could you please provide reported EC50 for NS(=O)(=O)c1ccc(Nc2ncc3cccc(-c4ccc(NCCN5CCOCC5)nc4)c3n2)cc1 [Compound 953] ? Thanks!
# output < 5 µM

# input Supply recorded EC50 for CC(C)N1CCC(c2c(O)ccc3cnc(Nc4ccc(F)cc4)nc23)CC1 [Compound 940] here.
# output 5 to 10 µM

# input Supply measured EC50 of CC(C)N1CCC(Oc2ccc3cnc(Nc4ccc(F)cc4)nc3c2)CC1 [Compound 989] in your reply.
# output 5 to 10 µM

Alright, here's another compound for you.
# input Check the records and state EC50 for COc1c(-c2cnn(C)c2)cc(Cl)c2cnc(Nc3ccc(C(=O)NC(C)C)cc3)nc12 [Compound 1034]
# output < 5 µM

----------
Test system: A2780 cells
MEASUREMENT DESCRIPTION: Cell Proliferation Assay (Cell Titer Glo), A2780
Format: cell-based
MEASUREMENT PARAMETERS: Homo sapiens; Cell Proliferation Assay, A2780; read-out: CPEC50 A2780
pEC50: −log10 of the molar value.
MEASUREMENT TYPE: pEC50

Below: 10 molecules and their reported pEC50.
# input Look up and state reported pEC50 for NS(=O)(=O)c1ccc(Nc2ncc3cccc(OCC(=O)N4CCOCC4)c3n2)cc1 [Compound 518]
# output 5.00 to 5.30

# input Answer with reported pEC50 of CNC(=O)c1ccc(Nc2ncc3cccc(OC(C)C)c3n2)cc1 [Compound 515]
# output > 5.30

# input Report measured pEC50; entry is N#Cc1ccc(Oc2cccc3cnc(Nc4ccc(S(N)(=O)=O)cc4)nc23)cc1 [Compound 409]
# output 5.00 to 5.30

# input Using the record for Cc1cc2cnc(Nc3ccc(C(=O)N4CCOCC4)cc3)nc2cc1OC1CCNCC1 [Compound 648] , state its measured pEC50.
# output > 5.30

# input Name the recorded pEC50 of the item NS(=O)(=O)c1ccc(Nc2ncc3cccc(C(=O)O)c3n2)cc1 [Compound 622] in your answer.
# output 5.00 to 5.30

# input Please list pEC50 recorded for the molecule CC(C)Oc1cccc2cnc(Nc3ccc(C(N)=O)cc3)nc12 [Compound 506]
# output > 5.30

# input Identify measured pEC50 corresponding to Cc1cc(S(N)(=O)=O)ccc1Nc1ncc2cccc(OC(C)C)c2n1 [Compound 562]
# output > 5.30

# input Given the molecule CC(=O)NCCNC(=O)c1cccc2cnc(Nc3ccc(S(N)(=O)=O)cc3)nc12 [Compound 626] , write its reported pEC50.
# output 5.00 to 5.30

# input Give pEC50 for the following molecule: COc1ncccc1-c1ccc2cnc(Nc3ccc(S(N)(=O)=O)cc3)nc2c1 [Compound 314]
# output 5.00 to 5.30

# input Find the measured pEC50 of c1csc(-c2cc3cnc(Nc4ccc(N5CCOCC5)cc4)nc3cc2OC2CCNCC2)n1 [Compound 645] and report it.
# output > 5.30

Others:
# input Quickly give me recorded pEC50 for NS(=O)(=O)c1ccc(Nc2ncc3ccc(C(=O)O)cc3n2)cc1 [Compound 559]
# output 5.00 to 5.30

# input Please supply the value of reported pEC50 for the item COc1ccc2cnc(Nc3ccc(S(N)(=O)=O)cc3)nc2c1 [Compound 629]
# output > 5.30

# input Answer with the recorded pEC50 for the molecule listed here: CC(=O)Nc1ccc(Nc2ncc3cccc(OC(C)C)c3n2)cc1 [Compound 311]
# output 5.00 to 5.30

# input Please indicate pEC50 recorded for Cc1ccc(OC2CCNCC2)c2nc(Nc3ccc(C(=O)NC4CC4)cc3)ncc12 [Compound 364]
# output > 5.30

# input Fill in pEC50 for record NS(=O)(=O)c1ccc(Nc2ncc3cccc(OCc4ccc5nnsc5c4)c3n2)cc1 [Compound 386]
# output > 5.30

# input Respond only with pEC50 recorded for NS(=O)(=O)c1ccc(Nc2ncc3cccc(Oc4ccccc4)c3n2)cc1 [Compound 405]
# output > 5.30

# input Give the reported pEC50 for this molecule. COc1cc(-c2ccc3cnc(Nc4ccc(S(N)(=O)=O)cc4)nc3c2)c(Cl)cn1 [Compound 696]
# output 5.00 to 5.30

# input Return value of pEC50 for input CC(C)NC(=O)c1ccc(Nc2ncc3cccc(OC(C)C)c3n2)cc1 [Compound 516] , no commentary.
# output > 5.30
